Tested on: CP247
ASSAY_TEXT: qHTS profiling for inhibitors of Plasmodium falciparum proliferation (AID 504749); further: nearly all actives have a fitted effect of over 60% in size
CONDITION_PARAMETERS: P. falciparum in erythrocytes, SYBR Green DNA, 72 h; series mostly up to 28.7 µM
Results filed as inconclusive are left out. Activity calls are given as the source filed them. The call rests on the fitted dose curve; in most records, active means well fitted inhibition curve with a large enough effect; inconclusive means small, poorly fitted or top-dose-only effect; inactive means flat fitted curve, though single readings scatter.
Please reply with one of these outcomes: 1 (yes) for active, 0 (no) for inactive

Previously resolved entries follow.
MOLECULE	CLASSIFICATION
CCCCCCCCCCCC[n+]1ccc2ccccc2c1	1 (yes)
O=S(=O)(O)O	0 (no)
CC(C)N=c1cc2n(-c3ccc(Cl)cc3)c3ccccc3nc-2cc1Nc1ccc(Cl)cc1	0 (no)
CN=C(NC#N)Nc1ccc(C2=NNC(=O)C[C@@H]2C)cc1	0 (no)
CC(C(=O)O)c1ccc(N2Cc3ccccc3C2=O)cc1 (configuration not stated)	0 (no)

[Q] What did this assay record as the result for CC1(C)S[C@@H]2[C@H](NC(=O)[C@@H](NC(=O)N3CCNC3=O)c3ccccc3)C(=O)N2[C@H]1C(=O)O ?
[A] 0 (no)

[Q] What did this assay record as the result for IC(I)I ?
[A] 0 (no)

[Q] What did this assay record as the result for CCCCCCOc1ccc(C(=N)N(CCCC)CCCC)c2ccccc12 ?
[A] 1 (yes)

[Q] What did this assay record as the result for Nc1c(Br)cc(Br)cc1CNC1CCC(O)CC1 (configuration not stated) ?
[A] 0 (no)

[Q] What did this assay record as the result for CCOc1ccc2c(c1)C(C)=CC(C)(C)N2 ?
[A] 0 (no)

[Q] What did this assay record as the result for O=S(=O)(O)c1ccc2c(N=Nc3ccc(S(=O)(=O)O)c4ccccc34)c(O)c(S(=O)(=O)O)cc2c1 ?
[A] 0 (no)

[Q] What did this assay record as the result for O=C(Nc1cccc(C(F)(F)F)c1)c1cc(Br)cc(Br)c1O ?
[A] 1 (yes)

[Q] What did this assay record as the result for C[C@H]1C[C@H]2[C@@H]3CCC4=CC(=O)C=C[C@]4(C)[C@@]3(F)[C@@H](O)C[C@]2(C)[C@@]1(O)C(=O)CO ?
[A] 0 (no)

[Q] What did this assay record as the result for C#CCOc1ccc2c(C)cc(=O)oc2c1 ?
[A] 0 (no)

[Q] What did this assay record as the result for Cc1ccccc1OCC(O)CNCCOc1ccc(C(N)=O)cc1 (configuration not stated) ?
[A] 0 (no)
